Values were extracted from ChEMBL document CHEMBL1201862.

So I've got a bunch of compounds here, and I need their GI50 values.
# System: DLD-1
# assay: NCI tumour cell line growth inhibition, 48 h
Calls of active or inactive are those of the source. No stated cut-off is given here; in the data, active = GI50 up to about 1.1 µM and inactive = higher.

compound="CC(C)C1N2CCCCC2[C@@H]2c3[nH]c4ccccc4c3CCN12 (stereo partly drawn)" result="> 100 µM (inactive)"
compound=N#C/N=C(/NCCc1c[nH]c2ccccc12)Oc1ccccc1 result="> 100 µM (inactive)"

Now look at this one.
Query string: Fill in: GI50 of N=C(N)N/N=C(/CC1OC(=O)c2ccccc21)c1ccc2ccccc2c1 (stereo not drawn) is ___
Result string: 14 µM (inactive)

###

# System: MOLT-4
# assay: NCI tumour cell line growth inhibition, 48 h
The source made the active and inactive calls. No stated cut-off is given here; in the data, active = GI50 up to about 1.1 µM and inactive = higher.
measure: GI50

Before answering, review these 4 worked examples.
molecule=COc1ccc(/C=c2\sc3nnc(CCC(=O)Nc4cccc(C(F)(F)F)c4)n3c2=O)cc1 result="4.56 µM (inactive)"
molecule="O=C(c1ccccc1)N1N=C(C(F)(F)F)CC1(O)C(F)(F)F (stereo not given)" result="> 100 µM (inactive)"
molecule=c1ccc(-c2nnc(SCc3c[nH]c4ccccc34)n2-c2ccccc2)cc1 result="8.11 µM (inactive)"
molecule=CC(C)(Oc1ccc(/C=C/C(=O)c2ccc(Cl)cc2)cc1)C(=O)Nc1c(Cl)cccc1Cl result="6.32 µM (inactive)"

Now look at this one.
Query string: Fill in the recorded GI50 for this molecule, with MOLT-4 as test system: CN(C)CCNc1nc(-c2ccc3ccccc3c2)nc2[nH]cnc12
Result string: 3.55 µM (inactive)

###

# System: SF-539
# assay: NCI tumour cell line growth inhibition, 48 h
The source made the active and inactive calls. Cut-off read from the data, not from the text of the source: active = GI50 up to about 1.1 µM and inactive = higher.
Could you please pick one outcome from this set? active, inactive

compound="COCC12CCC(OC)C34C5CC6(O)C(OC)CC(OC(C)=O)(C5C6OC(=O)c5ccccc5)C(C(OC)C13)C4N(C)C2 (stereo not given)" category=inactive
compound=OCCCCn1cc(Cn2ncc3c(SCc4ccccc4)ncnc32)nn1 category=inactive
compound="COc1cc(/C=C2\\CCC(C)C3C2=NN(C(C)=O)C3c2cc(OC)c(OC)c(OC)c2)cc(OC)c1OC (stereo not given)" category=inactive
compound=CC(C)(Oc1ccc(/C=C/C(=O)c2ccc(Cl)cc2)cc1)C(=O)Nc1c(Cl)cccc1Cl category=inactive

Query string: Could you check what this test reported for Cc1cc(C)n(-c2nc(C)c(CCO)c(=O)[nH]2)n1 ?
Result string: inactive

Query string: Could you check what this test reported for N#CC1CNC(N)NC1N (stereo not given) ?
Result string: inactive

Query string: Could you check what this test reported for Nc1c(-c2ccccc2)c2ccc([N+](=O)[O-])cc2c(=O)n1-c1cccc(C(=O)O)c1 ?
Result string: inactive

Query string: Could you check what this test reported for COCCCNC(=O)C1C(=O)C(=O)N(CCCOC)C1=O (stereo not given) ?
Result string: inactive

Query string: Could you check what this test reported for O=c1[nH]c2cc(-c3ccccc3)nc-2nn1-c1c(Cl)cc(Cl)cc1Cl ?
Result string: inactive

Query string: Could you check what this test reported for COc1cc2c(cc1OC)C(Cl)C(c1ccc(Br)cc1)=C2Cl (stereo not given) ?
Result string: inactive

Query string: Could you check what this test reported for c1ccc2c(c1)CCc1c(-c3n[nH]c4c3CCc3ccccc3-4)n[nH]c1-2 ?
Result string: inactive

Query string: Could you check what this test reported for COc1cc(CNC(=S)CCCCCCCCCCC(C)C)ccc1O ?
Result string: inactive

Query string: Could you check what this test reported for CCC1C(C#N)=C(N)OC2=C1C(=O)CC(C)(C)C2 (stereo not given) ?
Result string: inactive

Query string: Could you check what this test reported for CCCCC1c2c([nH]c3ccccc23)C2C(=O)N(c3ccc(OC)cc3)C(=O)C2C1CCC (stereo not given) ?
Result string: inactive

Query string: Could you check what this test reported for N/N=C1\C(=O)N(CCc2ccccc2)C(=O)C1C(=O)NCCc1ccccc1 (stereo not given) ?
Result string: inactive

Query string: Could you check what this test reported for COc1ccc(-c2csc3c2-n2cccc2C3=O)cc1 ?
Result string: active

Query string: Could you check what this test reported for CC(=O)NC(CCCCN(Cc1ccccc1)C(=O)N(C)N=O)C(=O)NCc1ccccc1 (stereo not given) ?
Result string: inactive

Query string: Could you check what this test reported for Cc1ccc(C)c(COCCOCn2cc(Br)c(N)nc2=O)c1 ?
Result string: inactive

Query string: Could you check what this test reported for c1ccc(-c2nc3ccccc3n3c(CN4CCCCC4)nnc23)cc1 ?
Result string: inactive

Query string: Could you check what this test reported for COc1ccc2c(C(=O)c3c(C)n(CCN4CCOCC4)c4ccccc34)cccc2c1 ?
Result string: inactive

Query string: Could you check what this test reported for Cc1nc(-c2nc(C)c(C(=O)/C=C/c3ccc(N(C)C)cc3)s2)sc1C(=O)/C=C/c1ccc(N(C)C)cc1 ?
Result string: inactive

Query string: Could you check what this test reported for CCCCCCc1cc2cc(C(=O)Nc3ccc(F)cc3)c(=N)oc2cc1O ?
Result string: inactive

Query string: Could you check what this test reported for O=C(O)C1=NN(c2ccc(S(=O)(=O)O)cc2)C2(C1)SCC(=O)N2c1nc2ccccc2s1 (stereo not given) ?
Result string: inactive

Query string: Could you check what this test reported for O=S(=O)(Nc1nc2ccccc2nc1Nc1cccc2ccccc12)c1ccccc1 ?
Result string: inactive

Query string: Could you check what this test reported for Clc1ccc(C2=Nc3ccccc3SC(c3cccs3)C2)cc1 (stereo not given) ?
Result string: inactive
